Reported Enzyme Activity Endpoint Assay (purified): Fab′2 values follow for various proteins
Target: pooled human IgG (human IgG1, 2, 3 and 4)
Quick reminder: number only, in ng/µL, skip the unit.

Return Enzyme Activity Endpoint Assay (purified): Fab′2 (reported value) for this protein: PRT-412 (protein) MVTSVWTKGVTPPADFTQGEDVFHAPYVANQGWYDITKTFNGKDDLLCGAATAGNMLHWWFDQNKEYIEAYLKKHPEKQKIMFGDQELLDVRKAINTKGSQKNSELFNYFRDKAFPNLSARRLGVMPDLVLDMFINGYYLNVTKTQTTDVNRTYQEKDKRGGIFDAVFTRGDQSKLLTSRHDFKEKGLKEISDLIKQELTEGKALGLSHTYANVRINHVINLWGADFDSDGNLKAIYVTDSDSNASIGMKKYFVGVNAAGKVAISAKEIKEDNIGAQVLGLFTLSTGQDIWNQTN 518

Provide Enzyme Activity Endpoint Assay (purified): Fab′2 value for the following protein: PRT-377 (protein) MVTSVWTKGVTPPTNFTYGEDVLHAPYVANQGWYDITKTFNGKDDLLCGAATAGNMLHWWFDQNKEQIENYLKKHPEKQKINFNGEQMFDVKEAIDTKDSQLDSKLFEYFLEKAFPYLSTKHLGVFPDHVIDMFINGYRLSLTNHGPTPVKRGSKDPRGGIFDAVFTRGDQSKLLTNRHDFKEKTLKEISDLIKQELTEGKALGISHTYANVRINHVINLWGADFDAEGNLEAIYVTDSDSNASIGMKKYFVGVNSNGKVAISAKEIEEDNIGAQVLGLFTLSTGQDIWNQTN 572

Origin of the recorded values: patent US20250027068
